Source: BindingDB's records for doi:10.1021/jm960395q

- SYSTEM: Phospholipase A2 (Homo sapiens, UniProt P04054)
- Sequence (P04054 whole entry): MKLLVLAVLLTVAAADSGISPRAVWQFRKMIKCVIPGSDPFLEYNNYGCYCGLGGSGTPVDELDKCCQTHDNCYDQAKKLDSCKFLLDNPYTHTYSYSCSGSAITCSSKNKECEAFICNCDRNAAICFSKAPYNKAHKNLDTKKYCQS
- ASSAY_PROTOCOL: Inhibition of recombinant human secretory phospholipase A2 (sPLA2), chromogenic screening assay.
EXPERIMENTAL_ENDPOINT: log10(IC50) (log10 of the value in nM)
Field: value | Transform: log10 | Quantity: IC50 | Unit: nM

Recorded results for 3 compounds are shown here.
• Cc1c(C(=O)C(N)=O)c2c(OCC(=O)O)cccn2c1Cc1ccccc1 = 0.90
• COC(=O)COc1cccn2c(Cc3ccccc3-c3ccccc3)c(C)c(C(=O)C(N)=O)c12 = 0.90
• CCc1c(C(=O)C(N)=O)c2c(OCCC(=O)O)cccn2c1Cc1ccccc1-c1ccccc1 = 1.64

// field: log10(IC50); key: CCCCc1ccc(Cc2c(CC)c(C(=O)C(N)=O)c3c(OCC(=O)O)cccn23)cc1 ; value = 1.04

// field: log10(IC50); key: CCc1c(C(=O)C(N)=O)c2cc(OCC(=O)O)ccn2c1Cc1ccccc1-c1ccccc1 ; value = 3.15

// field: log10(IC50); key: CCc1c(C(=O)C(N)=O)c2c(OCC(=O)O)cccn2c1Cc1cccc2ccccc12 ; value = 0.70

// field: log10(IC50); key: NC(=O)C(=O)c1c(C2CC2)c(Cc2ccccc2-c2ccccc2)n2cccc(OCC(=O)O)c12 ; value = 0.95

// field: log10(IC50); key: CCc1c(C(=O)C(N)=O)c2c(OCC(=O)O)cccn2c1Cc1cc(C(C)(C)C)cc(C(C)(C)C)c1 ; value = 3.82

// field: log10(IC50); key: CCc1c(C(=O)C(N)=O)c2c(OCC(=O)O)cccn2c1Cc1cccc(Cl)c1 ; value = 0.78

// field: log10(IC50); key: CCc1c(C(=O)C(N)=O)c2cc(OCCCC(=O)O)ccn2c1Cc1ccccc1-c1ccccc1 ; value = 2.15

// field: log10(IC50); key: CCc1c(C(N)=O)c2c(OCC(=O)O)cccn2c1Cc1cccc2ccccc12 ; value = 1.48

// field: log10(IC50); key: CCc1c(C(=O)C(N)=O)c2c(OCc3ccncc3)cccn2c1Cc1ccccc1-c1ccccc1 ; value = 1.92

// field: log10(IC50); key: COC(=O)COc1cccn2c(Cc3ccccc3-c3ccccc3)c(C3CCCC3)c(C(=O)C(N)=O)c12 ; value = 2.45

// field: log10(IC50); key: COC(=O)COc1cccn2c(Cc3ccccc3-c3ccccc3)c(C(C)C)c(C(=O)C(N)=O)c12 ; value = 1.54

// field: log10(IC50); key: CCc1c(C(=O)C(N)=O)c2c(OCC(=O)O)cccn2c1Cc1ccccc1Cc1ccccc1 ; value = 0.78

// field: log10(IC50); key: CCc1c(C(=O)C(N)=O)c2c(OCC(=O)OC)cccn2c1Cc1cccc(-c2ccccc2)c1 ; value = 0.95

// field: log10(IC50); key: CCc1c(C(=O)C(N)=O)c2c(OCCCC(=O)O)cccn2c1Cc1ccccc1 ; value = 2.30
